- Tested on: Escherichia coli
- protocol: MIC by serial dilution (agar wells), E. coli
- Assay type: cell-based
- assay-context: 0.1563 mg/mL, 150 µL in DMSO, 15 mm agar well
parameter-measured: zone of inhibition at 156.3 µg/mL (mm)
Write the answer as a number in mm, unit excluded.

Some entries whose results are on file:
| molecule | unit-label | zone of inhibition at 156.3 µg/mL |
| --- | --- | --- |
| Cc1ccc(S(=O)(=O)NC(=O)Nc2ccccc2C(F)(F)F)cc1 [Compound 11] | mm | 16 |
| Cc1ccc(S(=O)(=O)NC(=O)Nc2cc(C(F)(F)F)cc(C(F)(F)F)c2)cc1 [Compound 9] | mm | 20 |
| Cc1ccc(S(=O)(=O)NC(=O)Nc2ccc(C(F)(F)F)cc2)cc1 [Compound 7] | mm | 20 |

Req: Quick check: zone of inhibition at 156.3 µg/mL of Cc1ccc(S(=O)(=O)NC(=O)Nc2ccc(OC(F)(F)F)cc2)cc1 [Compound 8] ?
Resp: 19

###

- Test system: Escherichia coli
- protocol: MIC by serial dilution (agar wells), E. coli
- Type: cell-based
- assay-context: 0.0781 mg/mL, 150 µL in DMSO, 15 mm agar well
Listed here: items and their measured zone of inhibition at 78.1 µg/mL.
Write the answer as a number in mm, unit excluded.

Some entries whose results are on file:
| chemical-smiles | zone of inhibition at 78.1 µg/mL (mm) |
| --- | --- |
| Cc1ccc(S(=O)(=O)NC(=O)Nc2cc(C(F)(F)F)cc(C(F)(F)F)c2)cc1 | 16 |
| Cc1ccc(S(=O)(=O)NC(=O)Nc2ccc(OC(F)(F)F)cc2)cc1 | 18 |
| Cc1ccc(S(=O)(=O)NC(=O)Nc2ccc(C(F)(F)F)cc2)cc1 | 19 |

Please turn your attention to the following entry.
Req: Quick check: zone of inhibition at 78.1 µg/mL of `Cc1ccc(S(=O)(=O)NC(=O)Nc2ccccc2C(F)(F)F)cc1` ?
Resp: 0

###

Listed here: items and their measured zone of inhibition at 39.1 µg/mL.
- Test system: Bacillus mycoides
- protocol: microbe, parasite or virus in culture
- Type: cell-based
- assay-context: read-out: Inhibition zone
Write the answer as a number in mm, unit excluded.

| chemical-smiles | tested-target | unit-label | measured-value |
| --- | --- | --- | --- |
| Cc1ccc(S(=O)(=O)NC(=O)Nc2ccc(OC(F)(F)F)cc2)cc1 | Bacillus mycoides | mm | 17 |
| Cc1ccc(S(=O)(=O)NC(=O)Nc2ccccc2C(F)(F)F)cc1 | Bacillus mycoides | mm | 15 |
| Cc1ccc(S(=O)(=O)NC(=O)Nc2cc(C(F)(F)F)cc(C(F)(F)F)c2)cc1 | Bacillus mycoides | mm | 17 |

Please turn your attention to the following entry.
Req: Quick check: zone of inhibition at 39.1 µg/mL of `Cc1ccc(S(=O)(=O)NC(=O)Nc2ccc(C(F)(F)F)cc2)cc1` ?
Resp: 16

###

Listed here: items and their measured zone of inhibition at 312.5 µg/mL.
- Test system: Bacillus mycoides
- protocol: microbe, parasite or virus in culture
- Assay type: cell-based
- assay-context: read-out: Inhibition zone
Include the unit right after the number.

Some entries whose results are on file:
| chemical-smiles | zone of inhibition at 312.5 µg/mL |
| --- | --- |
| Cc1ccc(S(=O)(=O)NC(=O)Nc2ccc(OC(F)(F)F)cc2)cc1 | 20 mm |
| Cc1ccc(S(=O)(=O)NC(=O)Nc2cc(C(F)(F)F)cc(C(F)(F)F)c2)cc1 | 28 mm |
| Cc1ccc(S(=O)(=O)NC(=O)Nc2ccc(C(F)(F)F)cc2)cc1 | 20 mm |

Please turn your attention to the following entry.
Req: Quick check: zone of inhibition at 312.5 µg/mL of `Cc1ccc(S(=O)(=O)NC(=O)Nc2ccccc2C(F)(F)F)cc1` ?
Resp: 17 mm
